Entry source: patent US8362000B2

Subject Of Test: MGL (Rattus norvegicus, UniProt Q8R431)
Construct: one g rat brain was homogenized using a Polytron homogenizer; from tissue; host or cells: rat brain homogenate
Sequence (Q8R431 whole entry): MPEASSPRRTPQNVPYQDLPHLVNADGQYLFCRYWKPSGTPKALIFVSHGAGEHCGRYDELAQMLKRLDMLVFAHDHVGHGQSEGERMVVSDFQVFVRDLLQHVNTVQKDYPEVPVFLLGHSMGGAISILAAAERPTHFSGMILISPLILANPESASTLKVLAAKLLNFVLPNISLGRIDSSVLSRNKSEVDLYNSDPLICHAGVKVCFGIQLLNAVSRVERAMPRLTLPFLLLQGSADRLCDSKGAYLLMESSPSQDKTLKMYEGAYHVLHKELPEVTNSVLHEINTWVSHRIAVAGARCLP
Assay Name: 2-AG accumulation assay in rat brain homogenate
Type: biochemical
Condition Info: rat brain homogenate; compound 1 μM; 2-AG accumulation as percent of vehicle; read-out: Rat Brain 2AG % VehCntrl (%) @ 1 μM
Readout Type: 2-AG accumulation, % of vehicle control at 1 µM (%)

1) O=C(c1ccoc1)N1CCN(C2CN(C(=O)c3ccc(-c4ccccc4)cc3)C2)CC1 ... 200
2) O=C(c1ccc2c(c1)Sc1ccccc1O2)N1CC(N2CCN(C(=O)c3nccs3)CC2)C1 ... 823
3) Cc1nc(-c2cccc(Cl)c2)sc1C(=O)N1CC(N2CCN(C(=O)c3cscn3)CC2)C1 ... 604
4) O=C(c1ccc(-c2ccccc2)cc1)N1CC(N2CCN(C(=O)c3nccs3)CC2)C1 ... 529
5) O=C(c1cc2cccc(C(F)(F)F)c2s1)N1CC(N2CCN(C(=O)c3nccs3)CC2)C1 ... 378
6) O=C(c1ccc(C(F)c2ccc(C(F)(F)F)cc2)cc1)N1CC(N2CCN(C(=O)c3nccs3)CC2)C1 (centres unmarked) ... 762
7) O=C(c1ccc(CSc2cccc(Cl)c2)cc1)N1CC(N2CCN(C(=O)c3cscn3)CC2)C1 ... 514
8) O=C(c1ccc2c(c1)ncn2-c1ccc(F)c(F)c1)N1CC(N2CCN(C(=O)c3nccs3)CC2)C1 ... 393
